system: HLA-B*4403 (human)
experiment: competition vs labelled reference peptide on HLA class I
experimental_endpoint: pIC50
Answers are plain numbers, as −log10 of the molar value.

Qu. Identify the reported pIC50 for the following entry. GEGLACHQLCA [GEGLACHQLCA (Her2/neu position 506, 11-mer)]
Ans. 8.57
